B1: SMOC2 (parent)
chain: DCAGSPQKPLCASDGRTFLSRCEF

# Variants of: B1
# assay.notes: protein stability index of a GFP-peptide fusion (GPS, HEK-293T) (PSI 1-6); higher = more stable;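 note: lentivirally expressed fusions sorted by FACS into six bins by GFP to DsRed ratio, PSI derived from sequencing read proportions per bin multiplied by bin number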
# condition.parameters: c terminus: a fixed tail appended
# Lookup of reported protein stability index keyed by entry

# variant.name, protein stability index
records = [
    ("S5L", 2.46),
    ("C11A", 2.7),
    ("A12S", 4.06),
    ("C11V", 2.66),
    ("L10V", 2.28),
    ("A3K", 2.89),
    ("K8R", 2.83),
    ("C2N", 2.81),
    ("L10S", 2.97),
    ("C2V", 2.58),
    ("P6D", 2.46),
    ("C22E", 4.38),
    ("A12L", 2.56),
    ("P6Q", 2.75),
    ("D1T", 2.59),
    ("Q7F", 1.75),
    ("D14P", 2.36),
    ("C11D", 3.79),
    ("C2W", 2.23),
    ("P6N", 2.66),
    ("G15W", 2.06),
    ("F24T", 2.61),
    ("C2M", 2.86),
    ("R21T", 1.9),
    ("K8S", 2.34),
    ("S5N", 2.78),
    ("F24H", 3.79),
    ("C11G", 2.04),
    ("C11W", 2.41),
    ("S13Q", 2.58),
    ("C2Y", 2.63),
    ("S5V", 2.76),
    ("F24A", 3.45),
    ("L10D", 3.29),
    ("R16C", 2.33),
    ("G15H", 2.27),
    ("G15Y", 2.81),
    ("F24V", 3.32),
    ("F18K", 4.09),
    ("G4F", 2.23),
    ("F24S", 3.46),
    ("D14C", 1.6),
    ("A12V", 2.97),
    ("D14K", 2.4),
    ("A3T", 2.56),
    ("C22Q", 4.19),
]
